- measured.target: HIV-1 RT (Human immunodeficiency virus type 1 group M subtype B, UniProt P04585)
- assay: Kinetic analysis of HIV-1 RT inhibition
- Format: biochemical
- measurement.context: Ki, non-competitive model, varying dGTP, poly rC.dG
experimental.endpoint: Ki (nM)

[
  {
    "molecule": "Nc1nc2c(ncn2[C@@H]2CC[C@H](OC(C(=O)O)P(=O)(O)O)C2)c(=O)[nH]1 (mixture of isomers) [(L,D)-(±)G-α-CNP]",
    "experimental.endpoint": "Ki",
    "measured.number": 1300
  }
]

###

- measured.target: HIV-1 RT (Human immunodeficiency virus type 1 group M subtype B, UniProt P04585)
- assay: Kinetic analysis of HIV-1 RT inhibition
- Format: biochemical
- measurement.context: Ki, competitive model, varying dGTP, poly rC.dG
experimental.endpoint: Ki (µM)

[
  {
    "molecule": "Nc1nc2c(ncn2[C@@H]2CC[C@H](OC(C(=O)O)P(=O)(O)O)C2)c(=O)[nH]1 (mixture of isomers) [(L,D)-(±)G-α-CNP]",
    "measured.target": "HIV-1 RT (Human immunodeficiency virus type 1 group M subtype B, UniProt P04585)",
    "experimental.endpoint": "Ki",
    "measured.number": 0.455
  }
]

###

- measured.target: HSV-1 DNA polymerase (Human herpesvirus 1, UniProt P04293)
- Sequence (P04293 whole entry): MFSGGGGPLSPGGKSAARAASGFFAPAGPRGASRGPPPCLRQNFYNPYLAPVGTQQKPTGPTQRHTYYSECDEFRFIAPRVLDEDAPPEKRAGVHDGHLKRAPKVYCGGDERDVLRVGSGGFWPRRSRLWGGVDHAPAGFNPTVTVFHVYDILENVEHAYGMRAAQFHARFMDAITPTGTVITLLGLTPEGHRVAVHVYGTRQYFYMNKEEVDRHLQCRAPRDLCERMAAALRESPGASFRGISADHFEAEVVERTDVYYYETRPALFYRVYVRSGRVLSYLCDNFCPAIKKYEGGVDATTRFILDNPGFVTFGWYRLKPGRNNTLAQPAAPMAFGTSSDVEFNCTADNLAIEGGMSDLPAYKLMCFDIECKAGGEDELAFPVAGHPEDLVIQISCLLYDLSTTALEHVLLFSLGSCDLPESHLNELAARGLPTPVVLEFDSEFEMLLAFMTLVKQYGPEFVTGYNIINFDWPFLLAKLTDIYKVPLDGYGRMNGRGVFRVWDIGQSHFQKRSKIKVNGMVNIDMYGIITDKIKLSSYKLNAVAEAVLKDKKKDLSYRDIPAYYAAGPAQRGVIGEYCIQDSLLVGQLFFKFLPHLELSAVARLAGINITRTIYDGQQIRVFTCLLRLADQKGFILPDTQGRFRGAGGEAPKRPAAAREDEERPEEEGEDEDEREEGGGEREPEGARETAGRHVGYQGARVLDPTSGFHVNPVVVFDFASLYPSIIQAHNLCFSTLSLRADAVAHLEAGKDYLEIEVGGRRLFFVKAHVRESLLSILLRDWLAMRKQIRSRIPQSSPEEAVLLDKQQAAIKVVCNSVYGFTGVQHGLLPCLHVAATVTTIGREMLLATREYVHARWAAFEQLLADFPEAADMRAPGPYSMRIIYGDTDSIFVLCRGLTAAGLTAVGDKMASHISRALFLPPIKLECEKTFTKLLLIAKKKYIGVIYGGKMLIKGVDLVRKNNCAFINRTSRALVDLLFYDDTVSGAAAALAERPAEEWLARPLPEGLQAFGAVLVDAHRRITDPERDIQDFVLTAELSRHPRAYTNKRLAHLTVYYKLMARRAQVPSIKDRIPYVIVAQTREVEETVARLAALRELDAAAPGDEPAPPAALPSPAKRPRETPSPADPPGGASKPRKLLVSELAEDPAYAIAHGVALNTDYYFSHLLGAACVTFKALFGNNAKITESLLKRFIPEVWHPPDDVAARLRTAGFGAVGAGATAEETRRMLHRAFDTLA
- assay: HSV-1 DNA polymerase enzyme assay
- Format: biochemical
- measurement.context: read-out: IC50 HSV-1 DNA pol; calf thymus DNA, [^3H]dTTP
pIC50: −log10 of the molar value.

[
  {
    "line.notation": "O=C(O)P(=O)(O)O",
    "measured.target": "HSV-1 DNA polymerase (Human herpesvirus 1, UniProt P04293)",
    "sign.qualifier": "=",
    "pIC50": 5.46
  },
  {
    "line.notation": "Cn1c2ccccc2c2c1cc(C#N)c(=O)n2-c1ccc([N+](=O)[O-])cc1",
    "measured.target": "HSV-1 DNA polymerase (Human herpesvirus 1, UniProt P04293)",
    "sign.qualifier": "<",
    "pIC50": 4.00
  }
]

###

# maps each entry to its IC50
- measured.target: HCMV DNA polymerase (Human cytomegalovirus)
- Sequence (P08546 whole entry): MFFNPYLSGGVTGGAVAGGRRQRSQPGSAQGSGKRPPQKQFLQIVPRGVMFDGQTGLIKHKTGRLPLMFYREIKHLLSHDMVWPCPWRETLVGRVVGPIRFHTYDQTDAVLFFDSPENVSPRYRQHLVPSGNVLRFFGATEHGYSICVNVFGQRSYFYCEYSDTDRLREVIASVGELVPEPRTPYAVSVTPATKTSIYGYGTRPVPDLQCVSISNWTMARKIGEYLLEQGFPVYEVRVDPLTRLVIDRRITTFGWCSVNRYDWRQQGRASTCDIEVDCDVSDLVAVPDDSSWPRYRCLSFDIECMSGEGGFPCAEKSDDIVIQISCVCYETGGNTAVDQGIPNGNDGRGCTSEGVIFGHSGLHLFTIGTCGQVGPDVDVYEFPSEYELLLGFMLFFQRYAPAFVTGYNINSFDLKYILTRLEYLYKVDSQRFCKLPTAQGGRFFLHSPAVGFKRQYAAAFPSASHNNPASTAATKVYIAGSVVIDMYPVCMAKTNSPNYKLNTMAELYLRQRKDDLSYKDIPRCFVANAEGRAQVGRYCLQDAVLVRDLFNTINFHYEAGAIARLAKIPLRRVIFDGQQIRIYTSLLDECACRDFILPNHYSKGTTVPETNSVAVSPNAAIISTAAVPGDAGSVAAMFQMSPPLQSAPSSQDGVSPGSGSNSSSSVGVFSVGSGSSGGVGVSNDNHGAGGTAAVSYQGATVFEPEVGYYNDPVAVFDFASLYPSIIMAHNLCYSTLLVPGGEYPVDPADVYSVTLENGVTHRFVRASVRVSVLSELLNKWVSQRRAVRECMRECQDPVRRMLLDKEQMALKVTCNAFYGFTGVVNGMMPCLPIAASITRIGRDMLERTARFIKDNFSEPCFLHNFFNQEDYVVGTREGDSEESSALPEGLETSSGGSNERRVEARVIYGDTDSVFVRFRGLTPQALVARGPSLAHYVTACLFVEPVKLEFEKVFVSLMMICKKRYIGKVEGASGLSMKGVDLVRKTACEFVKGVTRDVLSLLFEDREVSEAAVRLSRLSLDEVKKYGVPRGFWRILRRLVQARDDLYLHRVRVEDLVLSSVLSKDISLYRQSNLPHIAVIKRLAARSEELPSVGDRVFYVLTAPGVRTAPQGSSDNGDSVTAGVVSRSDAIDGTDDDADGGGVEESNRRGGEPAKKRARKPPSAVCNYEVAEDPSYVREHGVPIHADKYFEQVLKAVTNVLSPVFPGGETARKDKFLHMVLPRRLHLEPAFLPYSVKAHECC
- assay: HCMV DNA polymerase enzyme assay
- Format: biochemical
- measurement.context: read-out: IC50 HCMV DNA pol; calf thymus DNA, [^3H]dGTP
experimental.endpoint: IC50 (µM)

[
  {
    "line.notation": "Cn1c2ccccc2c2c1cc(C#N)c(=O)n2-c1ccc([N+](=O)[O-])cc1",
    "sign.qualifier": ">",
    "measured.number": 100
  },
  {
    "line.notation": "O=C(O)P(=O)(O)O",
    "sign.qualifier": "=",
    "measured.number": 7
  }
]

###

- measured.target: HSV-1 DNA polymerase (Human herpesvirus 1, UniProt P04293)
- assay: HSV-1 DNA polymerase enzyme assay
- Type: biochemical
- measurement.context: IC50 HSV-1 DNA pol, calf thymus DNA, [^3H]dTTP

[
  {
    "molecule": "Cc1ccnc2c1NC(=O)c1cccnc1N2C1CC1 [Nevirapine]",
    "IC50": "> 100 µM"
  },
  {
    "molecule": "Nc1nc2c(ncn2[C@@H]2CC[C@H](OC(C(=O)O)P(=O)(O)O)C2)c(=O)[nH]1 (mixture of isomers) [(L,D)-(±)G-α-CNP]",
    "IC50": "32 µM"
  },
  {
    "molecule": "Nc1nc2c(ncn2[C@H]2CC[C@@H](COP(=O)(O)OP(=O)(O)OP(=O)(O)O)O2)c(=O)[nH]1 [ddGTP, 2′,3′-dideoxyguanosine-5′-triphosphate]",
    "IC50": "> 100 µM"
  }
]
